Hi there, I'd appreciate the recorded EC50 for every entry that follows.
# experimentalSystem: Zinc finger protein mex-5 (Caenorhabditis elegans, UniProt Q9XUB2)
# Sequence (Q9XUB2 whole entry): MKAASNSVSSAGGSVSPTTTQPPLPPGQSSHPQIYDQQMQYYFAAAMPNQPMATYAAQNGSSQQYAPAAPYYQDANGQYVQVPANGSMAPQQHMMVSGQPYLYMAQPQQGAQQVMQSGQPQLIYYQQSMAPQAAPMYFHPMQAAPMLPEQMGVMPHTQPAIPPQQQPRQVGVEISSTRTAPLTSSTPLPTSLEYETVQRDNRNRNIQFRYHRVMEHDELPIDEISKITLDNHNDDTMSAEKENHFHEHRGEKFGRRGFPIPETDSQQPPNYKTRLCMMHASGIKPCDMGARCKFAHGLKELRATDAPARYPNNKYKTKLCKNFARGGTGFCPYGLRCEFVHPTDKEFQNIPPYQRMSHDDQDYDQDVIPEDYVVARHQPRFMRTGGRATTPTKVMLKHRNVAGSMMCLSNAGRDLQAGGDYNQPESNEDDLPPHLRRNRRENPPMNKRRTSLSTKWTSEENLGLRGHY
# methodNotes: MEX-5/TCR-2 RNA interaction inhibitors, dose response, biochemical, C. elegans, fluorescence polarization (AID 1960)

Reference set (3 entries):
>  <smilesCode>
Cc1ccc(N(C)S(=O)(=O)c2c(C)noc2/C=C/N(C)C)cc1

>  <EC50>
> 300 µM (not active)

$$$$
>  <smilesCode>
CCCCCCN1C(=O)/C(=C/Nc2ccccc2N2CCOCC2)C(=O)NC1=S

>  <EC50>
> 300 µM (inconclusive)

$$$$
>  <smilesCode>
FC(F)(F)c1cc(C(F)(F)F)n2nc(-c3sccc3-n3cccc3)cc2n1

>  <EC50>
> 300 µM (not active)

$$$$

Now for a further compound.
Recorded EC50 of `Cc1cc[n+](C2=C([N-]S(=O)(=O)c3cccs3)C(=O)c3ccccc3C2=O)cc1C` , please.
> 300 µM (not active)
